Test: metabolic stability in human liver microsomes
Type: in vitro ADME
PARAMETER_MEASURED: LMS: predicted in vivo hepatic clearance, human

Query: I'd like to know its LMS: predicted in vivo hepatic clearance, human. The molecule in question is O=C(OCc1cc(Cl)cc(Cl)c1)N1CCN(C2CCN(C(=O)c3cccc4c3B(O)OC4)C2)CC1 (centres unmarked) [Compound 31]
Reply: 85 %LBF

Query: I'd like to know its LMS: predicted in vivo hepatic clearance, human. The molecule in question is Cc1cc(C)cc(COC(=O)N2CCN(C3CCN(C(=O)c4ccc5c(c4)B(O)OC5)C3)CC2)c1 (centres unmarked) [Compound 43]
Reply: 85 %LBF

Query: I'd like to know its LMS: predicted in vivo hepatic clearance, human. The molecule in question is O=C(OCc1cc(Cl)cc(Cl)c1)N1CCN(C2CCN(C(=O)c3ccc4c(c3)B(O)OC4)CC2)CC1 [Compound 34]
Reply: 89 %LBF

Query: I'd like to know its LMS: predicted in vivo hepatic clearance, human. The molecule in question is O=C1S/C(=C\c2ccc(OCc3ccc(B(O)O)cc3)cc2)C(=O)N1Cc1ccc(F)cc1 [HA155, reference compound]
Reply: 54 %LBF

Query: I'd like to know its LMS: predicted in vivo hepatic clearance, human. The molecule in question is O=C(OCc1cc(Cl)cc(Cl)c1)N1CCN(C2CN(C(=O)c3ccc4c(c3)B(O)OC4)C2)CC1 [Compound 37]
Reply: 85 %LBF
